UniProtKB Q9UHH9 data, read-out IC50
Sequence (Q9UHH9 whole entry): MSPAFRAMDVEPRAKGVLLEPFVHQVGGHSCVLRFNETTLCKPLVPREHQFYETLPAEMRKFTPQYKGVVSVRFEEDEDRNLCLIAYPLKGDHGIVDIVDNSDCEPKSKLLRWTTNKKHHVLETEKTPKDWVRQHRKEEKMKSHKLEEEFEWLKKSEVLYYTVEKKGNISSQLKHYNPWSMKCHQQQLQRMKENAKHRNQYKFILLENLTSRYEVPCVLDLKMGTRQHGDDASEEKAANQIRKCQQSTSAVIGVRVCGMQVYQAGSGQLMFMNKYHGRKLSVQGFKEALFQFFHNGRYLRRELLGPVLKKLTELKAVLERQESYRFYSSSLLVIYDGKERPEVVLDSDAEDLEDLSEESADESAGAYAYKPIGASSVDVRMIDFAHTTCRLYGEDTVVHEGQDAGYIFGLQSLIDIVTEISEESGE

Reference set (5 entries):
[
  {
    "structure": "O=c1[nH]cnc2ccc(N3CC[C@H]4CCCC[C@@H]4C3)cc12",
    "IC50": "91.9 µM"
  },
  {
    "structure": "O=c1[nH]cnc2ccc(/C=C/c3ccc(F)cc3)cc12",
    "IC50": "> 200 µM"
  },
  {
    "structure": "O=c1[nH]cnc2ccc(N3CCCC3)cc12",
    "IC50": "> 200 µM"
  },
  {
    "structure": "O=c1[nH]cnc2ccc(/C=C/c3ccccc3)cc12",
    "IC50": "193 µM"
  },
  {
    "structure": "O=c1[nH]cnc2ccc(C3=Cc4ccccc4C3)cc12",
    "IC50": "> 200 µM"
  }
]

Kindly review the next compound as well.
Note to self: IC50 recorded for N#Cc1cc(N2CCCC2)cc2c(=O)[nH]cnc12 was 28.8 µM

----------
UniProt:Q92551 data, read-out IC50
Give bare numbers, in µM.

Reference set (3 entries):
[
  {
    "structure": "CN(C)c1cccc(-c2cc(O)c3nc[nH]c(=O)c3c2)c1",
    "IC50 [µM]": 37.4
  },
  {
    "structure": "Nc1ncnc2ccc(N3CCCC3)cc12",
    "IC50 [µM]": 48.9
  },
  {
    "structure": "O=c1[nH]cnc2ccc(N3CCCCC3)cc12",
    "IC50 [µM]": 25.9
  }
]

List the reported IC50 of each compound below.
1. CN(Cc1ccccc1)c1ccc2nc[nH]c(=O)c2c1
2. O=c1[nH]cnc2cc(F)c(N3CCCC3)cc12
3. Nc1cc(N2CCCC2)cc2c(=O)[nH]cnc12
4. O=c1[nH]cnc2ccc(N3Cc4cccc(F)c4C3)cc12

Completion:
[15.4, 12.2, 189, 1.07]

List the reported IC50 of each compound below.
1. O=c1[nH]cnc2ccc([N+]3=Cc4ccccc4CCC3)cc12
2. O=c1[nH]cnc2ccc([N+]3=Cc4ccccc4CC3)cc12

Completion:
1: 45.2; 2: 2.88

----------
UniProtKB Q92551 data, read-out pIC50
One number for each entry, as −log10 of the molar value.

[
  {
    "structure": "O=c1[nH]cnc2ccc(/C=C/c3ccncc3)cc12",
    "measurement-name": "pIC50",
    "test-result": 3.90
  },
  {
    "structure": "O=C(O)c1cc(/C=C/c2ccccc2)cc2c(=O)[nH]cnc12",
    "measurement-name": "pIC50",
    "test-result": 4.17
  },
  {
    "structure": "O=c1[nH]cnc2ncc(/C=C/c3ccccc3)cc12",
    "measurement-name": "pIC50",
    "test-result": 3.93
  }
]

Kindly review the next compound as well.
Entry O=c1[nH]cnc2ccc(NC3CCCCC3)cc12 , tested on UniProtKB Q92551, has a reported pIC50 of 4.15

----------
Inositol hexakisphosphate kinase 1 (Homo sapiens, UniProt Q92551) data, read-out IC50
Sequence (Q92551 whole entry): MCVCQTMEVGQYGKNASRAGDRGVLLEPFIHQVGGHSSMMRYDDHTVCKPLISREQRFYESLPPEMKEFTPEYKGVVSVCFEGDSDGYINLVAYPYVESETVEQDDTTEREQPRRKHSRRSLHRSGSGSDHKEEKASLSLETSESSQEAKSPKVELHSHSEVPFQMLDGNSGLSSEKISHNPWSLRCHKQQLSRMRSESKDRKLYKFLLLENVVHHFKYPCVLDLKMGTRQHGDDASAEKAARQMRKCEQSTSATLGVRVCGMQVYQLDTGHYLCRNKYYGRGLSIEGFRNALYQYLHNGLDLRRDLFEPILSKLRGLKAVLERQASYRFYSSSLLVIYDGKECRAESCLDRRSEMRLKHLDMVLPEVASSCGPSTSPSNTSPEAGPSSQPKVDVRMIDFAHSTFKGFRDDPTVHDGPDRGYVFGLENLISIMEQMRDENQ

Reference set (5 entries):
[
  {
    "structure": "c1cc2c(cc1N1CCCC1)CNCC2",
    "IC50": "> 200 µM"
  },
  {
    "structure": "Cc1nc2ccc(/C=C/c3ccccc3)cc2c(=O)[nH]1",
    "IC50": "85.3 µM"
  },
  {
    "structure": "Cc1nc2ccc(N3CCCC3)cc2c(=O)[nH]1",
    "IC50": "> 200 µM"
  },
  {
    "structure": "O=C1NCCc2ccc(N3CCCC3)cc21",
    "IC50": "> 200 µM"
  },
  {
    "structure": "Cc1cc(F)ccc1-c1cc(O)c2nc[nH]c(=O)c2c1",
    "IC50": "> 200 µM"
  }
]

Note to self: IC50 recorded for CC1(C)C[N+](c2ccc3nc[nH]c(=O)c3c2)=Cc2ccccc21 was 0.595 µM

----------
# target-or-system: Inositol hexakisphosphate kinase 1 (Homo sapiens)
measurement-name: IC50

Reference set (2 entries):
[
  {
    "structure": "Nc1nc2ccc(N3CCCC3)cc2c(=O)[nH]1",
    "target-or-system": "Inositol hexakisphosphate kinase 1 (Homo sapiens)",
    "IC50": "> 200 µM"
  },
  {
    "structure": "O=c1[nH]cnc2c(Cl)cc(/C=C/c3ccccc3)cc12",
    "target-or-system": "Inositol hexakisphosphate kinase 1 (Homo sapiens)",
    "IC50": "> 200 µM"
  }
]

Note to self: IC50 recorded for O=c1[nH]c(=O)c2cc(N3CCCC3)ccc2[nH]1 was > 200 µM
